Assay: NCI Yeast Anticancer Drug Screen. Data for the bub3 strain (AID 167)
Details: S. cerevisiae bub3 mutant strain, at 50.0 µM (retest, dose inferred, filed as 5.0)
The panel holds about 79,000 compounds, 15% with a hit somewhere; the sample as a whole holds those more often. Activity calls are given as the source filed them. Cut-off read from the data, not from the text of the source: active = growth inhibition above about 70%; inactive = the rest.
Respond using exactly one of the listed classes: T (active), F (inactive)

Take a look at these entries with their results.
Compound: O=C(Cc1ccccc1)C(F)(F)F
Category: F

Compound: CC[n+]1ccc(Nc2ccc(NC(=O)c3ccc(Nc4cc[n+](CC)c5ccc([N+](=O)[O-])cc45)cc3)cc2)cc1
Category: T

Compound: CC(C)NC(=O)C(C)O (stereo not given)
Category: F

Compound: [Cl-].[Rh+3].c1ccc(-c2ccnc3c2ccc2c(-c4ccccc4)ccnc23)cc1.c1ccc(-c2ccnc3c2ccc2c(-c4ccccc4)ccnc23)cc1.c1ccc(-c2ccnc3c2ccc2c(-c4ccccc4)ccnc23)cc1
Category: F

Proceed to the following item.
For this compound, state the assay outcome: CC1(C)CCCC2=C1C(=O)N(SC(Cl)(Cl)Cl)C2=O
T

----------
Experiment: NCI Yeast Anticancer Drug Screen. Data for the rad50 strain (AID 155);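 note: 0% = growth of vehicle-only cultures of the same strain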
Details: S. cerevisiae rad50 strain growth inhibition; at 5.0 µM (retest, dose inferred, filed as 0.5); hits give high values
This is part of a sample that, as a whole, favours compounds with a hit. Of some 79,000 tested, about 15% had one in any assay.
Quantity Name: growth inhibition (%)
Numbers only, in %.

Molecule: NC(CS/C(Cl)=C/Cl)C(=O)O (centres undefined)
growth inhibition, %: 48
--
Molecule: CC1(C)OC2C(COC(c3ccccc3)(c3ccccc3)c3ccccc3)OC(c3c[nH]c4c(N)ncnc34)C2O1 (centres undefined)
growth inhibition, %: 9

Hello, I would appreciate it if you could give growth inhibition for each entry below.
1. CCCCNC(=O)C(C)O (centres undefined)
2. OCCNC(c1ccc(Cl)cc1)C(O)c1ccc(Cl)cc1 (centres undefined)
3. CCOC(=O)COc1cc(-c2ccccc2F)nc2cc3c(cc12)OCO3
4. CC(C)c1ccc(Nc2n[nH]c(=S)s2)cc1
5. Cc1ccc2[nH]cc(CC(=O)O)c2c1
6. N#CC1c2ccccc2C=CN1C(=O)CCCl (centres undefined)
7. COc1ccc(N=CC2CCCCC2=O)c([N+](=O)[O-])c1 (centres undefined)
8. COc1ccc(C(Cn2ccnc2)Sc2ccc(Cl)c(Cl)c2)cc1 (centres undefined)

1: 5; 2: 5; 3: 9; 4: 39; 5: 95; 6: 7; 7: 25; 8: 74

Hello, I would appreciate it if you could give growth inhibition for each entry below.
1. O=C(c1ccccc1)C(Br)[N+](=O)[O-] (centres undefined)
2. C/C(=N\Nc1ccc(Cl)cc1)C(=O)O

99
17

Hello, I would appreciate it if you could give growth inhibition for each entry below.
1. O=C1c2ccccc2Cc2cccc(Cl)c21
2. CC(O)C(=O)NCCc1ccccc1 (centres undefined)
3. CCC(CC)(c1ccccc1)C(O)c1ccccc1 (centres undefined)
4. CCCCCCCCCC(=O)CCCCCCCCC
5. O=C(O)c1ccc(-c2ccccc2)cc1
6. Cc1cc2cccnc2c2ncccc12
7. Oc1ccc2c(c1)CCc1ccccc1-2

[15, 8, 11, 48, 12, 34, 37]

----------
Experiment: NCI Yeast Anticancer Drug Screen. Data for the mlh1 rad18 strain (AID 175)
Conditions: S. cerevisiae mlh1 rad18 strain growth inhibition; at 5.0 µM (retest, dose inferred, filed as 0.5); hits give high values
Protocol: Growth inhibition of yeast strains with defined genetic alterations is measured as a screen for potential anti-cancer activity. Selected strains with alterations in DNA damage repair or cell cycle control were exposed to compounds and growth inhibition was measured relative to vehicle treated controls. The strain used in this assay is mlh1 rad18
This is part of a sample that, as a whole, favours compounds with a hit. Of some 79,000 tested, about 15% had one in any assay.
Quantity Name: growth inhibition (%)
Answers are plain numbers, in %.

Some molecules with known growth inhibition results, for comparison:
Molecule: COc1cc(OC)c(/C=C/c2c3ccccc3cc[n+]2C)c(OC)c1
Quantity Name: growth inhibition
Measured Result: 50

Molecule: O=S(=O)(O)c1cnccn1
Quantity Name: growth inhibition
Measured Result: 1

Molecule: O=C(NOC(=O)c1ccccc1)c1ccccc1
Quantity Name: growth inhibition
Measured Result: 93

Molecule: O=C1C=CC(=O)N1c1ccccc1
Quantity Name: growth inhibition
Measured Result: 90

Molecule: CN(C)c1ccc(/C=C/c2ccnc3ccccc23)cc1
Quantity Name: growth inhibition
Measured Result: 19

Hello, I would appreciate it if you could give growth inhibition for each entry below.
1. Cc1ccc(Nc2n[nH]c(=S)s2)cc1F
2. COC1CC(C)C(OC)c2cc(O)cc(c2O)NC(=O)/C(C)=C/C=C\C(C)C(OC(N)=O)/C(C)=C\C(C)C1OC (centres undefined)
3. O=[N+]([O-])C=C(c1ccccc1)c1ccccc1

27
96
-12

----------
Test: NCI Yeast Anticancer Drug Screen. Data for the rad50 strain (AID 155);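 note: 0% = growth of vehicle-only cultures of the same strain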
Settings: S. cerevisiae rad50 strain growth inhibition; at 50.0 µM
This is part of a sample that, as a whole, favours compounds with a hit. Of some 79,000 tested, about 15% had one in any assay. Active and inactive are the calls of the source. Rule as the data show it: active = growth inhibition above about 70%; inactive = the rest.
Respond using exactly one of the listed classes: active, inactive

Molecule: N=C(N)Sc1cccc[n+]1[O-]
Category: active
--
Molecule: CCCOC(=O)c1nc(N(CC2CCCCC2)C(=O)NC)sc1/N=C/c1ccccc1
Category: inactive
--
Molecule: Cn1c(-c2ccccc2)c(/C=C/C2=[N+](C)c3ccccc3C2(C)C)c2ccccc21
Category: active
--
Molecule: NCCCN(CCCN)CCCNCc1c2ccccc2c(CNCCCN(CCCN)CCCN)c2ccccc12
Category: active
--
Molecule: C=[CH][Sn]([CH]=C)([O]c1cccc2cccnc12)[O]c1cccc2cccnc12
Category: active

For this molecule, state the assay outcome: O=C(O)c1ccc2c(c1)C(=O)c1ccccc1C2=O
active

Same thing, different molecule: CCc1cccc(CC)c1N1C(=O)C=CC1=O
active

Same thing, different molecule: COc1ccc2nc3cc([N+](=O)[O-])ccc3c(NNc3ccccc3)c2c1
inactive

Same thing, different molecule: O=C1c2ccccc2C(=O)c2c(O)c(Cl)cc(O)c21
inactive

Same thing, different molecule: CC1(C)OCC(COC(c2ccccc2)(c2ccccc2)c2ccccc2)O1 (stereo not given)
inactive

Same thing, different molecule: O=C(NNC(=S)NC1OC(CO)C(O)C(O)C1O)c1cccc(C(=O)NNC(=S)NC2OC(CO)C(O)C(O)C2O)n1 (stereo not given)
inactive

Same thing, different molecule: O=C(O)CCCOc1cc(-c2ccccc2F)nc2cc3c(cc12)OCO3
active

Same thing, different molecule: CCOC(=O)NC(/C=C/c1ccccc1)NC(=O)OCC
inactive

Same thing, different molecule: CC(C)(C)c1ccc(CCO)cc1
inactive

Same thing, different molecule: COc1ccc(Nc2nc3ccc(C(F)(F)F)cc3nc2C(=O)O)cc1
inactive

----------
Test: NCI Yeast Anticancer Drug Screen. Data for the rad50 strain (AID 155);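 note: 0% = growth of vehicle-only cultures of the same strain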
Conditions: S. cerevisiae rad50 strain growth inhibition; at 5.0 µM (retest, dose inferred, filed as 0.5); hits give high values
Experimental: Growth inhibition of yeast strains with defined genetic alterations is measured as a screen for potential anti-cancer activity. Selected strains with alterations in DNA damage repair or cell cycle control were exposed to compounds and growth inhibition was measured relative to vehicle treated controls. The strain used in this assay is rad50
Compounds without any hit were thinned out: in the full panel of roughly 79,000, 15% have a hit.
Provide the recorded growth inhibition for the entries that follow.
Answers are plain numbers, in %.

Some compounds with known growth inhibition results, for comparison:
Compound Structure String: NNc1cccc([N+](=O)[O-])c1
growth inhibition, %: 12
--
Compound Structure String: CN(C)c1cc(N)c(Cc2c(N)cc(N(C)C)cc2Cl)c(Cl)c1
growth inhibition, %: 5
--
Compound Structure String: NC(=S)N/N=C\c1nccc2c(C(F)(F)F)cccc12
growth inhibition, %: -4

Now look at this one.
Reported growth inhibition, compound CC1=CC(=NC(=O)CBr)C=C/C1=N\S(=O)(=O)c1ccccc1 : ____
65

----------
Experiment: NCI Yeast Anticancer Drug Screen. Data for the rad50 strain (AID 155);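 note: 0% = growth of vehicle-only cultures of the same strain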
Details: S. cerevisiae rad50 strain growth inhibition; at 50.0 µM
Procedure: Growth inhibition of yeast strains with defined genetic alterations is measured as a screen for potential anti-cancer activity. Selected strains with alterations in DNA damage repair or cell cycle control were exposed to compounds and growth inhibition was measured relative to vehicle treated controls. The strain used in this assay is rad50
The panel holds about 79,000 compounds, 15% with a hit somewhere; the sample as a whole holds those more often. Calls of active or inactive are those of the source. Cut-off read from the data, not from the text of the source: active = growth inhibition above about 70%; inactive = the rest.
Respond using exactly one of the listed classes: active, inactive

For this compound, state the assay outcome: C=C1C(=O)C2=CC1CCC(=O)C1(C)CCC(OC(C)=O)C(C)(C)C1CC2O (configuration not stated)
active

Same thing, different compound: CN1CCC(CN2c3ccccc3Sc3ccccc32)C1 (configuration not stated)
inactive

Same thing, different compound: COc1cc(/C=C/c2ccnc3ccccc23)cc(OC)c1OC
inactive

Same thing, different compound: O=C1c2ccccc2Cc2cccc(Cl)c21
active

Same thing, different compound: O=C(Cc1nc2cc(Cl)c(Cl)cc2nc1CC(=O)c1cccnc1)c1cccnc1
active

Same thing, different compound: CCCCCCCCCCCC(=O)OC(C)C(=O)NCCCC (configuration not stated)
inactive

Same thing, different compound: O=[N+]([O-])c1ccc2c(c1)Cc1ccccc1-2
inactive

Same thing, different compound: O=C1/C(=C/c2ccccn2)CCc2ccccc21
active

Same thing, different compound: Cc1ccc(/C=C2\CNC/C(=C\c3ccc(C)cc3)C2=O)cc1
active

Same thing, different compound: CCOC(=O)C1(C)CCCC1N (configuration not stated)
inactive

Same thing, different compound: CC1=NN(c2ccccc2)C(=O)C1(Br)Br
active

Same thing, different compound: OC(Cc1cc(CC(O)(C(F)(F)F)C(F)(F)F)nc(CC(O)(C(F)(F)F)C(F)(F)F)c1)(C(F)(F)F)C(F)(F)F
active
